These entries and their values trace back to the supplement of paper PMC3334620.

Biological target: Msn1 (UniProt P22148)
Sequence: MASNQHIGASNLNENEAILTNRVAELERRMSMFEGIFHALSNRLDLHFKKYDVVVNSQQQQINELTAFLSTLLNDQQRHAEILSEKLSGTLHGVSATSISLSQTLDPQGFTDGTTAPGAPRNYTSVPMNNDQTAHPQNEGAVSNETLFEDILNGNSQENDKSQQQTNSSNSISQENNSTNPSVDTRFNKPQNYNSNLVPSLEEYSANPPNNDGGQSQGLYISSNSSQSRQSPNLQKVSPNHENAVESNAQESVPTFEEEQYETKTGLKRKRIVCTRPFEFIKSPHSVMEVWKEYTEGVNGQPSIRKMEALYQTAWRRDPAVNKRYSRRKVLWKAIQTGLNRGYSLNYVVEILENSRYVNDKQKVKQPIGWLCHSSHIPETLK
Assay: PBM E-score (8-mer binding enrichment) (E-score (-0.5 to 0.5)); higher = stronger / more preferred TF binding
Details: protein concentration: 200 nM; construct: GST-full length
Whole data set: some 33,000 sequences, median “E-score (-0.5 to 0.5)” near -0.013, cut for the highest 2% near 0.3. The list comes from a sample in which the highest values are over-represented; it also holds close analogues and randomly drawn sequences.
Each entry falls into one class according to its PBM E-score; the ranges are group A (below 0.04), group B (0.04 to below 0.2), group C (0.2 or more)

Which PBM E-score category applies to GCCGGAGA here?
group B

Any idea which band ACCGGACA is in?
group C

# bin lookup: classify CGTCTCAA by its PBM E-score
group A

Which category fits this record: ATGTCGCG
group C

Form field 'band' for GGAGTTAA
group A

Continuing:
// return the class label for ATAAATGG
group B

Determine which band this sequence sits in: AAATTTGT
group C

Which of the defined bands does the recorded PBM E-score of GCCGGACC sit within?
group A

Hey, which category is CCAGGGAC in, do you know?
group B

# bin lookup: classify GCAAACCC by its PBM E-score
group A
